Test: Pharmacokinetics after oral apixaban capsules, plasma concentrations by LC/MS
Conditions: both, mixed-breed, dog, plasma, po, 0.2 mg/kg, AUC (area-under-the-curve), dogs, mean dose 0.2 mg/kg; mean, n = 5

COMPOUND: COc1ccc(-n2nc(C(N)=O)c3c2C(=O)N(c2ccc(N4CCCCC4=O)cc2)CC3)cc1 [apixaban]
AUC [ng·h/mL]: 1950

====

Experiment: Pharmacokinetics after intravenous apixaban, plasma concentrations by LC/MS
Type: in vivo, dog
Conditions: both sexes, mixed-breed, dog, plasma, iv, 0.18 mg/kg, dogs, IV, mean dose 0.18 mg/kg; geometric mean; read-out: AUC (area-under-the-curve)
ENDPOINT_LABEL: AUC (ng·h/mL)

COMPOUND: COc1ccc(-n2nc(C(N)=O)c3c2C(=O)N(c2ccc(N4CCCCC4=O)cc2)CC3)cc1 [apixaban]
ENDPOINT_LABEL: AUC
READOUT_VALUE: 5620
